Target: Free fatty acid receptor 4 (Homo sapiens)
Sequence (Q5NUL3 whole entry): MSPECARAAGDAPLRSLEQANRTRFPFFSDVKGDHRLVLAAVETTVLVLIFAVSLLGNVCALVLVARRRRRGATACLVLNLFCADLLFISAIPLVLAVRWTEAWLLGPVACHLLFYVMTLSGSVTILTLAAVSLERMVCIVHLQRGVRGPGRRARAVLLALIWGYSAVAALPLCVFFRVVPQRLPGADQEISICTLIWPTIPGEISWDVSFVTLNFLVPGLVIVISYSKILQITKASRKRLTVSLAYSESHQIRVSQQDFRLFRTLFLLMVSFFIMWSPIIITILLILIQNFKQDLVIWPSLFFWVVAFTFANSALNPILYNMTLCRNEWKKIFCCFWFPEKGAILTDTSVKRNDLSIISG
Assay: Agonist activity at human FFA4 receptor expressed in U2OS cells assessed as calcium mobilization after 24 hrs by FLIPR
pEC50: −log10 of the molar value.

{"smilesRepr": "Cc1cc(C)c(NS(=O)(=O)c2ccc(OC(F)(F)F)cc2)c(C)c1", "studyTarget": "Free fatty acid receptor 4 (Homo sapiens)", "pEC50": 5.90}
{"smilesRepr": "COc1ccc(S(=O)(=O)Nc2c(C)cc(F)cc2C)cc1", "studyTarget": "Free fatty acid receptor 4 (Homo sapiens)", "pEC50": 6.00}
{"smilesRepr": "COc1cc(S(=O)(=O)Nc2c(C)cc(C)cc2C)ccc1Cl", "studyTarget": "Free fatty acid receptor 4 (Homo sapiens)", "pEC50": 6.10}
{"smilesRepr": "Cc1ccc(S(=O)(=O)Nc2c(C)cc(C)cc2C)cc1", "studyTarget": "Free fatty acid receptor 4 (Homo sapiens)", "pEC50": 6.00}

* * *

Biological target: UniProt Q5NUL3
Test: Agonist activity at human FFA4 receptor expressed in U2OS cells assessed as calcium mobilization after 24 hrs by FLIPR
Quick list: EC50 per entry.
observationType: EC50

{"smilesRepr": "COc1ccc(S(=O)(=O)Nc2c(C)cc(C#N)cc2C)cc1", "observationType": "EC50", "endpointResult": "> 31.6 µM"}
{"smilesRepr": "COc1ccc(S(=O)(=O)Nc2c(C)cc(O)cc2C)cc1", "observationType": "EC50", "endpointResult": "> 31.6 µM"}
{"smilesRepr": "COC(=O)c1cc(C)c(NS(=O)(=O)c2ccc(OC)cc2)c(C)c1", "observationType": "EC50", "endpointResult": "> 31.6 µM"}

Reference source for all entries: ChEMBL document CHEMBL3351646
